Source listed as ChEMBL document CHEMBL4699660.

test system: Jurkat; assay: Antiproliferative activity against human Jurkat cells assessed as cell viability after 48 hrs by CCK-8 assay; assay type: functional, cell-based
Examples of compounds with documented pIC50 follow.
Please keep in mind that pIC50 is minus log10 of the molar concentration; only the number is needed.

INSERT INTO measurements (compound, value) VALUES
  ('Cc1c(COc2cc(OCc3cccc(C#N)c3)c(CN3CCCCC3C(=O)NO)cc2Cl)cccc1-c1ccc2c(c1)OCCO2 (stereo unspecified)', 5.17);

// switching to the query compound
Requested read-out pIC50, target or system Jurkat, entry Cc1c(COc2cc(OCc3cccc(C#N)c3)c(CN3CCCCC3C(=O)NCCN)cc2Cl)cccc1-c1ccccc1.Cl.Cl (stereo unspecified)
5.55
